- Tested on: U2OS
- assayProcedure: relative viability EC50 (midpoint between 100% and the lowest measured viability); higher = less toxic
- details: 72 h
Where a name gives a salt, the structure may show the parent alone.
What relative viability EC50 was measured for each of the following?

Prompt: Entry COc1ccc(NC(=O)c2ccc(-c3ccc(-c4noc(C)n4)cc3C)cc2)cc1OCCN(C)C has what relative viability EC50?
Response: 3.33 µM

Prompt: Entry CN[C@H]1CC[C@@H](c2ccc(Cl)c(Cl)c2)c2ccccc21 [SERTRALINE HYDROCHLORIDE] has what relative viability EC50?
Response: > 10 µM

Prompt: Entry CCc1cc(O)c(Oc2ccc(C(N)=O)cc2F)cc1F has what relative viability EC50?
Response: > 10 µM

Prompt: Entry CCCCCCOC(=O)NC(=N)c1ccc(NCc2nc3cc(C(=O)N(CCC(=O)OCC)c4ccccn4)ccc3n2C)cc1 [dabigatran-etexilate] has what relative viability EC50?
Response: > 10 µM

Prompt: Entry CCN(CCO)CCCOc1ccc2c(Nc3cc(CC(=O)Nc4cccc(F)c4)[nH]n3)ncnc2c1 has what relative viability EC50?
Response: > 10 µM

Prompt: Entry Cc1cccc(C(=O)NCN2CCN(c3ccccc3C#N)CC2)c1 has what relative viability EC50?
Response: > 10 µM

Prompt: Entry C[C@@H](O)[C@H](N)C(=O)N1CCC[C@H]1C(=O)N1CCC[C@H]1C(=O)N[C@H](C(N)=O)[C@@H](C)O has what relative viability EC50?
Response: > 10 µM

Prompt: Entry CC(C)C[C@H](CN)CC(=O)O has what relative viability EC50?
Response: > 10 µM

Prompt: Entry N#C[C@@H]1C[C@@H]2C[C@@H]2N1C(=O)[C@@H](N)C12CC3CC(CC(O)(C3)C1)C2 has what relative viability EC50?
Response: > 10 µM

Prompt: Entry CCCCCCCCCCCCCCCCCCN(CCCCCCCCCCCCCCCCCC)CCCN(CCO)CCO has what relative viability EC50?
Response: > 10 µM

Prompt: Entry CCOC(=O)O[C@]1(C(=O)OCCl)CC[C@H]2[C@@H]3CCC4=CC(=O)C=C[C@]4(C)[C@H]3[C@@H](O)C[C@@]21C has what relative viability EC50?
Response: > 10 µM

Prompt: Entry Cc1cccc(OCC(O)CNC(C)(C)C)c1C (stereo not given) has what relative viability EC50?
Response: > 10 µM

Prompt: Entry CO[C@@H]1[C@H](N(C)C(=O)c2ccccc2)C[C@H]2O[C@]1(C)n1c3ccccc3c3c4c(c5c6ccccc6n2c5c31)C(=O)NC4 has what relative viability EC50?
Response: 0.897 µM

Prompt: Entry CC(C)N(CC[C@H](c1ccccc1)c1cc(CO)ccc1O)C(C)C [5-hydroxymethyl-tolterodine] has what relative viability EC50?
Response: > 10 µM

Prompt: Entry CC(C)c1c2cc(-c3ccnc(N[C@H]4CC[C@H](NC5CCOCC5)CC4)n3)ccc2nn1C has what relative viability EC50?
Response: 0.851 µM

Prompt: Entry c1ccc([C@H]2CNCc3ccccc32)cc1 [4-phenyl-1,2,3,4-tetrahydroisoquinoline] has what relative viability EC50?
Response: > 10 µM

Prompt: Entry CS[C@H]1SC[C@H]2C(=O)N(C)[C@@H](C(C)C)C(=O)OC[C@@H](NC(=O)c3cnc4ccccc4n3)C(=O)N[C@@H](C)C(=O)N(C)[C@@H]1C(=O)N(C)[C@@H](C(C)C)C(=O)OC[C@@H](NC(=O)c1cnc3ccccc3n1)C(=O)N[C@@H](C)C(=O)N2C has what relative viability EC50?
Response: 0.0011 µM

Prompt: Entry COc1cc(-n2cnc3cc(-c4ccc(Cl)cc4)sc3c2=O)ccc1OCCN1CCCC1 has what relative viability EC50?
Response: > 10 µM

Prompt: Entry COC(=O)c1cnn(-c2ccc(F)cc2F)c1/C=N/NC(=S)NC(C)(C)C has what relative viability EC50?
Response: > 10 µM

Prompt: Entry CC(=O)N(CC(C)C(=O)O)c1c(I)cc(I)c(N)c1I (stereo not given) has what relative viability EC50?
Response: > 10 µM

Prompt: Entry COc1cccc(C(=O)CCN[C@@H](C)[C@H](O)c2ccccc2)c1 has what relative viability EC50?
Response: > 10 µM

Prompt: Entry O=C(O)C1(C(=O)O)CCC1.[NH2-].[NH2-].[Pt+2] has what relative viability EC50?
Response: > 10 µM

Prompt: Entry OC(CNCC(O)C1CCc2cc(F)ccc2O1)C1CCc2cc(F)ccc2O1 (stereo not given) has what relative viability EC50?
Response: > 10 µM

Prompt: Entry COc1ccc2cc(CCC(C)=O)ccc2c1 has what relative viability EC50?
Response: > 10 µM

Prompt: Entry CCC1(C)CC(=O)NC(=O)C1 [bemegride] has what relative viability EC50?
Response: > 10 µM

Prompt: Entry O=C1OC(c2ccc(O)cc2)(c2ccc(O)cc2)c2ccccc21 has what relative viability EC50?
Response: > 10 µM

Prompt: Entry COc1cc(N2CCC(N)CC2)ccc1Nc1ncc(Cl)c(-c2c[nH]c3ccccc23)n1 has what relative viability EC50?
Response: 1.39 µM

Prompt: Entry CC(=O)[O-].CC(=O)[O-].N.NC1CCCCC1.[Cl-].[Cl-].[Pt+4] has what relative viability EC50?
Response: 3.44 µM

Prompt: Entry CNCC(=O)O has what relative viability EC50?
Response: > 10 µM

Prompt: Entry CC(=O)NNC(=O)N1Cc2ccccc2Oc2ccc(Cl)cc21 has what relative viability EC50?
Response: > 10 µM

Prompt: Entry CCCC(CCC)C(=O)NCc1ccc2c(cnn2-c2ccccc2OC)c1 has what relative viability EC50?
Response: > 10 µM

Prompt: Entry Cc1cccc(Oc2nc3c(C)cccn3c(=O)c2/C=C(\C#N)c2nc3ccccc3s2)c1 has what relative viability EC50?
Response: > 10 µM

Prompt: Entry CN1C[C@H](CNC(=O)OCc2ccccc2)C[C@@H]2c3cccc4c3c(cn4C)C[C@H]21 has what relative viability EC50?
Response: > 10 µM

Prompt: Entry C[C@@H]1c2ccccc2CN1CC1=NCCN1 (racemic) has what relative viability EC50?
Response: > 10 µM

Prompt: Entry NC(=O)C(c1ccccc1)(c1ccc(F)cc1)c1ccc(F)cc1 has what relative viability EC50?
Response: > 10 µM

This collection of values is drawn from the supplement of paper PMC13380429.
